Measured phosphorylation enrichment, listed per entry.
- target-desc: FGFR3 (UniProt P22607)
- Sequence (P22607 whole entry, looked up): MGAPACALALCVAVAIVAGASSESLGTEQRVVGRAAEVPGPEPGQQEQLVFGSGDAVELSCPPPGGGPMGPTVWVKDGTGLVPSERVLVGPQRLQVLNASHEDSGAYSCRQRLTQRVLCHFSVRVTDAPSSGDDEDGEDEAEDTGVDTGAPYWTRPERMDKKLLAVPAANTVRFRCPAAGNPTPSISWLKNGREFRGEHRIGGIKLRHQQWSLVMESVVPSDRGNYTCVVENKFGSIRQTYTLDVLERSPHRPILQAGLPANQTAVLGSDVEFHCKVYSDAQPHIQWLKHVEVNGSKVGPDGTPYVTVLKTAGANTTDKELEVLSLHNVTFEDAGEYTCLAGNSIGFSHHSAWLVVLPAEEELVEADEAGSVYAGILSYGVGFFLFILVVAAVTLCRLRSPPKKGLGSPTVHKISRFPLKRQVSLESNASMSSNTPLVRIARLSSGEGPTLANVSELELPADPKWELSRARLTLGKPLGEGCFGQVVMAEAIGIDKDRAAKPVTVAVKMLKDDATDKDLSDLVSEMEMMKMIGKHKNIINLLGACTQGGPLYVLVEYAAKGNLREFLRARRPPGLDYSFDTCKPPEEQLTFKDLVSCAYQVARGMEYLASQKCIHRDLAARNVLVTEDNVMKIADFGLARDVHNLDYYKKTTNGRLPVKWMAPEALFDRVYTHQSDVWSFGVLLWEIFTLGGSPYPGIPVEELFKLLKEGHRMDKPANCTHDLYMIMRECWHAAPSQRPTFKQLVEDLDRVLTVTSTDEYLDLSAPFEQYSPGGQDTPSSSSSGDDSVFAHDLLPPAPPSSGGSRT
- test-summary: phosphorylation enrichment, bacterial display (enrichment ratio); higher = better substrate or ligand; peptides without Tyr show the background
# print the numeric value only

Worked examples, 5 sequences total:
sequence-content	quantity-measured	quantitative-readout
ISITPYPAILH [IFT80_Y588]	phosphorylation enrichment	0.676
FENGEYIIRQG [PRKG1_Y247_YF]	phosphorylation enrichment	0.69
RNLLIYTEFGK [HGD_Y166_G161R]	phosphorylation enrichment	0.945
MSSHHCDFKKF [ZNF445_Y428_Y428C_YF]	phosphorylation enrichment	0.417
FFRKFCNKSED [RYR1_Y4864_Y4864C]	phosphorylation enrichment	0.6

Recorded phosphorylation enrichment of EVESPYEVRDF [GIGYF2_Y1168_H1171R_YF] , please.
0.942

Recorded phosphorylation enrichment of LSAPWYLNRIS [HEXA_Y421] , please.
0.533

Recorded phosphorylation enrichment of HRERPYGGGGG [FUS_Y526_R521H] , please.
0.449

Recorded phosphorylation enrichment of CFTRQYTLPPG [HSPB1_Y142_K141Q] , please.
0.656

Recorded phosphorylation enrichment of TGDFGYRAPGY [TNS2_Y668] , please.
0.435

Recorded phosphorylation enrichment of TRSFKCLLLSM [NF1_Y491_Y491C_YF] , please.
0.609

Recorded phosphorylation enrichment of AKKMKYFEGVS [PRKDC_Y682_I680M] , please.
0.434

Recorded phosphorylation enrichment of MKGDFYRSLAE [YWHAG_Y131_Y133S_YF] , please.
0.52

* * *

Measured phosphorylation enrichment, listed per entry.
- target-desc: Jak2 (UniProt O60674)
- Sequence (O60674 whole entry, looked up): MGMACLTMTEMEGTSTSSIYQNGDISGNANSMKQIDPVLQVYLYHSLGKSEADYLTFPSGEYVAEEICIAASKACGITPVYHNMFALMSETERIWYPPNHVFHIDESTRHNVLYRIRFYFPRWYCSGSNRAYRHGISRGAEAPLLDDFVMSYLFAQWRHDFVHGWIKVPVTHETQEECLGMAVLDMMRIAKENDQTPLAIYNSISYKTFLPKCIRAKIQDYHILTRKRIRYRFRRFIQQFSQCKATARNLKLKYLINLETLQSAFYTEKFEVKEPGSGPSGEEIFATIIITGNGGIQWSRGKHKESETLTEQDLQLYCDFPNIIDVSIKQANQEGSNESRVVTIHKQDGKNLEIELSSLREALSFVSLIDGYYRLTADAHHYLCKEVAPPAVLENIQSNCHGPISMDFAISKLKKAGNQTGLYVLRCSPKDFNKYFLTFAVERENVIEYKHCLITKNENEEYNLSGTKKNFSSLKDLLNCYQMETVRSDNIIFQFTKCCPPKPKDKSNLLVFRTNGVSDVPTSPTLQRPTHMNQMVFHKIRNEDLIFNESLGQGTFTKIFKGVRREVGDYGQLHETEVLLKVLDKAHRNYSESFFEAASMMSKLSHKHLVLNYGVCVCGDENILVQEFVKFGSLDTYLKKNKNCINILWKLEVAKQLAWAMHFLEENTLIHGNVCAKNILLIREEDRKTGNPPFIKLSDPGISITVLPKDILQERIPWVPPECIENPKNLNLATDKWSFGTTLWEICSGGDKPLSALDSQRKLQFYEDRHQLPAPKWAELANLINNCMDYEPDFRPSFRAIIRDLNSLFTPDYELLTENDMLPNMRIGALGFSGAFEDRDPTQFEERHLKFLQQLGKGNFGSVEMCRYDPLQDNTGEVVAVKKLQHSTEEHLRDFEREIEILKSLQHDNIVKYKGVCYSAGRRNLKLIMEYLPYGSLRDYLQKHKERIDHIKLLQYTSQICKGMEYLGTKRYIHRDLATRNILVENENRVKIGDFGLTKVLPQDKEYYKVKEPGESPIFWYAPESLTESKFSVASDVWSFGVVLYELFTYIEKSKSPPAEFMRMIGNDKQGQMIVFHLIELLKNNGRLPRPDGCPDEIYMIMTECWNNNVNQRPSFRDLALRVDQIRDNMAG
- test-summary: phosphorylation enrichment, bacterial display (enrichment ratio); higher = better substrate or ligand; peptides without Tyr show the background
# print the numeric value only

Worked examples, 8 sequences total:
sequence-content	target-desc	phosphorylation enrichment
LLSVAYQNVVG [YWHAG_Y49_K50Q]	Jak2 (UniProt O60674)	1.22
LVIIKYLPEWT [PSEN1_Y240_F237I]	Jak2 (UniProt O60674)	2.79
LIHTKYPQLLP [AHCY_Y143]	Jak2 (UniProt O60674)	0.679
NVVVPYEPPEV [TP53_Y220_S215N]	Jak2 (UniProt O60674)	1.11
NYYDLYGGEKF [PTPN11_Y66_D61N]	Jak2 (UniProt O60674)	1.97
MQMEEYRGRVE [BTNL2_Y91_W94R]	Jak2 (UniProt O60674)	0.573
DRLASYLDKMR [KRT17_Y98_V102M]	Jak2 (UniProt O60674)	0.667
KVKVEYDMTVP [AHNAK_Y964_G962V]	Jak2 (UniProt O60674)	0.872

Recorded phosphorylation enrichment of LFIDSYEKDVA [PGM1_Y521_YF] , please.
1.22

* * *

- target-desc: Jak2 (UniProt O60674)
- test-summary: phosphorylation enrichment, bacterial display (enrichment ratio); higher = better substrate or ligand; peptides without Tyr show the background
Measured phosphorylation enrichment, listed per entry.

Recorded phosphorylation enrichment of IRTDAYVWAMT [RPE65_Y89_R91W] , please.
0.904

Recorded phosphorylation enrichment of VKALKYKSMKI [ITGA11_Y1098_L1093V] , please.
0.434

Recorded phosphorylation enrichment of HLELNYKEDEY [MME_Y502_Y497H] , please.
1.06

Recorded phosphorylation enrichment of HNMPIYEGFAL [ACTA1_Y168_V165M_YF] , please.
0.859

Recorded phosphorylation enrichment of GPGLVYGVANK [FLNB_Y1833] , please.
0.718

* * *

- Tested on: AncSZ
- test-summary: phosphorylation enrichment, bacterial display (enrichment ratio); higher = better substrate or ligand; peptides without Tyr show the background
Satisfied means recorded phosphorylation enrichment is 0.8 or above; Not satisfied means it is below 0.8.

The examples below pair each entry with its known result.
sequence-content	assigned-category
ACRSLYGGFVE [MVD_Y164]	Satisfied
LKEIRYPPYTD [ALDH3B2_Y362_H361R]	Not satisfied

Item RAYRRYLLKQK [SCN2A_Y1919] with phosphorylation enrichment of 0.8 or above?
Not satisfied

Item EEHIPCTHMNG [INSR_Y1361_Y1361C] with phosphorylation enrichment of 0.8 or above?
Satisfied

Item PSAEGYQDVRD [ABLIM1_Y439] with phosphorylation enrichment of 0.8 or above?
Satisfied

Item RMSSSYPTGLA [ADM_Y52] with phosphorylation enrichment of 0.8 or above?
Not satisfied

Item LLVVLYKYRCF [PSEN1_Y154_Y159F] with phosphorylation enrichment of 0.8 or above?
Satisfied

Item AKYLGYPPPEI [KDR_Y357] with phosphorylation enrichment of 0.8 or above?
Not satisfied

Item DRLASYLDKVR [KRT10_Y160] with phosphorylation enrichment of 0.8 or above?
Not satisfied

Item SVTCTYCPALN [TP53_Y126_S127C] with phosphorylation enrichment of 0.8 or above?
Satisfied

* * *

- target-desc: EPHB2 (UniProt P29323)
- Sequence (P29323 whole entry, looked up): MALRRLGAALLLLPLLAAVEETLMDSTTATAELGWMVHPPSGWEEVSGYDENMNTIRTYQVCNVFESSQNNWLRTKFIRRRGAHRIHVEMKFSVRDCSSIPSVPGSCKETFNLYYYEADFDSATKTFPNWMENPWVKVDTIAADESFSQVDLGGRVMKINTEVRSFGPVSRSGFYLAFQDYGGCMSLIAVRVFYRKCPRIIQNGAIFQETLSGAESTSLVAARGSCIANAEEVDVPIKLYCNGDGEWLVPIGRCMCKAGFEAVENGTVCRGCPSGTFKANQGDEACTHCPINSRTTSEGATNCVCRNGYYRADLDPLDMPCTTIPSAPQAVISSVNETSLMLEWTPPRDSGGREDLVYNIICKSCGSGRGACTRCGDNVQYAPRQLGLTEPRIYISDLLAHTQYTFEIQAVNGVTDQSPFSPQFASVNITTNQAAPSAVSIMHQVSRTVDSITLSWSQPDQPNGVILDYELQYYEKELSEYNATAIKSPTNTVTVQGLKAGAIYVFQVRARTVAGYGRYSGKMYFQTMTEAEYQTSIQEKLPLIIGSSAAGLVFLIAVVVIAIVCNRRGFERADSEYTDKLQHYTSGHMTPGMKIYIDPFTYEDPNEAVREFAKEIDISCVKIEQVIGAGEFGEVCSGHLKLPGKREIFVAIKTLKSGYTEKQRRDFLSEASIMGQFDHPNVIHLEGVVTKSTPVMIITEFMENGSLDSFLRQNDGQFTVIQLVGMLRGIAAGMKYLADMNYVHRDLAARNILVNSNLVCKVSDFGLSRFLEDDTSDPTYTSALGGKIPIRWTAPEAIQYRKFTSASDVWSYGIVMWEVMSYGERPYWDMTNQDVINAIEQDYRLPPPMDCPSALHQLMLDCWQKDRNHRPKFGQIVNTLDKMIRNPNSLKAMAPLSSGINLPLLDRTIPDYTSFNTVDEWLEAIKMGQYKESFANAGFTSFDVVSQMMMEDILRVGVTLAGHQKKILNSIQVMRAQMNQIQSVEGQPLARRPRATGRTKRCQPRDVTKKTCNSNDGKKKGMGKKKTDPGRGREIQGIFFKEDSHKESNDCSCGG
- test-summary: phosphorylation enrichment, bacterial display (enrichment ratio); higher = better substrate or ligand; peptides without Tyr show the background
true (1) means recorded phosphorylation enrichment is 0.6 or above; false (0) means it is below 0.6.

sequence-content	assigned-category
RHPFFFAPELL [ALB_Y174_Y174F_YF]	true (1)
VCDALYPPGPP	false (0)
LLNPRYNLPLD [TOM1L1_Y109]	true (1)
VRTGIYHGREP [PIK3CA_Y361_G364R]	false (0)
FIRKDYEACKA [BBS4_Y48_YF]	false (0)
ANAYIYVVQLP [L1CAM_Y420]	true (1)

Item PQGVGYPPQPQ [EP300_Y2219_Q2223P] with phosphorylation enrichment of 0.6 or above?
false (0)

Item TVMGLYQKSSL [MYH7_Y609_V606M] with phosphorylation enrichment of 0.6 or above?
false (0)

Item KHTLSYVDVGT [SDHA_Y629] with phosphorylation enrichment of 0.6 or above?
false (0)

Item RGRKVYLEDGF [PRIM2_Y201] with phosphorylation enrichment of 0.6 or above?
true (1)

Item APSEFYDGDHD [HDAC3_Y414_N411S] with phosphorylation enrichment of 0.6 or above?
false (0)

Item SSVPDYLAAVD [GLB1_Y154_D151V] with phosphorylation enrichment of 0.6 or above?
true (1)

Item MGGSLYFSFPD [HIKESHI_Y55_V54L_YF] with phosphorylation enrichment of 0.6 or above?
true (1)

* * *

- target-desc: EPHB2 (UniProt P29323)
- test-summary: phosphorylation enrichment, bacterial display (enrichment ratio); higher = better substrate or ligand; peptides without Tyr show the background
Note to self: class = bucket of phosphorylation enrichment, per low (below 0.4), middle (0.4 to below 0.6), high (0.6 or more)

The examples below pair each entry with its known result.
sequence-content	assigned-category
GTAPSYGNPSS [CD19_Y378]	low
EPSVDYCVVKI [CAD_Y735]	high
ACRSLYGGFVE [MVD_Y164]	high
TSQSQYFSFRE [CCDC170_Y323]	low
DKATEYIQFMR [MAX_Y70_YF]	middle

Which class is correct for the following sequence? SSRKEYFIGGG [GYPC_Y126]
low

Which class is correct for the following sequence? KIIRWYVSSEG [ANK2_Y3907_R3906W]
high

Which class is correct for the following sequence? ILNANCMAKRL [GLDC_Y839_Y839C]
middle

Which class is correct for the following sequence? LITILYIGFLG [KCNQ1_Y267_T265I]
high

Which class is correct for the following sequence? GITTGYLVLKE [DNMT3B_Y588_A585T]
middle

Which class is correct for the following sequence? SRDTRYLVLAV [AMH_Y195]
middle

* * *

- target-desc: Grb2 SH2 (UniProt P62993)
- Sequence (P62993 whole entry, looked up): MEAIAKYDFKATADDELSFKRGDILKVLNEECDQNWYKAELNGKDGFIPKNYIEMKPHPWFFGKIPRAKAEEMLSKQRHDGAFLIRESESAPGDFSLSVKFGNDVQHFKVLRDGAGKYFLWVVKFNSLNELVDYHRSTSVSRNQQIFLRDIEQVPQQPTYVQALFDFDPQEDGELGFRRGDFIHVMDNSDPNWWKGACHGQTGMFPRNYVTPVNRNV
- test-summary: SH2 binding enrichment of the phosphorylated peptide, bacterial display (enrichment ratio); higher = better substrate or ligand; peptides without Tyr show the background
Measured SH2 binding enrichment, listed per entry.
# print the numeric value only

sequence-content	SH2 binding enrichment
LGGAMYFLEAE [PKHD1_Y452_YF]	0.868
WKKKIYEESST [MOCS2_Y170_E168K]	0.62
HNMPIYEGFAL [ACTA1_Y168_V165M_YF]	0.607
RWHEGYRQTPR [CD44_Y412_K417R]	1.43
HDRGNYVQLNM [RECQL4_Y353_R355Q]	0.986
SGTFQYIIAKF [FOXL2_Y83_I80T_YF]	0.699
SSENPCATIKD [MEGF10_Y1030_Y1030C]	0.795
EFFDGYWGFSV [ITGA2B_Y265_YF]	0.705
KGLMPYGQPRP [SRRT_Y798_Q793K]	0.923
CTSIHYNFMCN [TP53_Y234_T231S_YF]	1.57

Kindly consider the entry below.
Recorded SH2 binding enrichment of IHADICRWFNI [MARS1_Y344_Y344C] , please.
0.779
